tested on: Staphylococcus aureus; test: Antibacterial activity against methicillin-resistant Staphylococcus aureus ATCC 43300 measured after 12 to 14 hrs; type: functional
quantityKind: MIC

As a guide, the following entries are already answered.
{"compound": "OCc1cc2c3ccccc3n(Cc3ccc(Br)cc3)c2c(-c2c[nH]c3ccccc23)n1", "quantityKind": "MIC", "reportedResult": "3.12 µM"}
{"compound": "OCc1cc2c3ccccc3n(Cc3ccc(F)cc3)c2c(-c2c[nH]c3ccccc23)n1", "quantityKind": "MIC", "reportedResult": "3.12 µM"}
{"compound": "OCc1cc2c3ccccc3n(Cc3ccccc3)c2c(-c2c[nH]c3ccccc23)n1", "quantityKind": "MIC", "reportedResult": "100 µM"}
{"compound": "COC(=O)c1cc2c3ccccc3n(Cc3ccccc3C(F)(F)F)c2c(-c2cn(C(C)=O)c3ccccc23)n1", "quantityKind": "MIC", "reportedResult": "> 100 µM"}
{"compound": "COC(=O)c1cc2c3ccccc3n(Cc3ccccc3Br)c2c(-c2cn(C(C)=O)c3ccccc23)n1", "quantityKind": "MIC", "reportedResult": "> 100 µM"}
{"compound": "COC(=O)c1cc2c3ccccc3n(Cc3ccc(Cl)cc3)c2c(-c2cn(C(C)=O)c3ccccc23)n1", "quantityKind": "MIC", "reportedResult": "> 100 µM"}

Any idea what its MIC is? The compound is `COC(=O)c1cc2c([nH]c3ccccc32)c(-c2cn(C(C)=O)c3ccccc23)n1`
> 100 µM

Also, `COC(=O)c1cc2c3ccccc3n(Cc3cccc(C)c3)c2c(-c2cn(C(C)=O)c3ccccc23)n1` please.
> 100 µM

Also, `COC(=O)c1cc2c3ccccc3n(Cc3cccc(Cl)c3)c2c(-c2cn(C(C)=O)c3ccccc23)n1` please.
> 100 µM

Also, `OCc1cc2c3ccccc3n(Cc3cccc(C(F)(F)F)c3)c2c(-c2c[nH]c3ccccc23)n1` please.
12.5 µM

Also, `COC(=O)c1cc2c3ccccc3n(Cc3cccc(C(F)(F)F)c3)c2c(-c2cn(C(C)=O)c3ccccc23)n1` please.
> 100 µM

Also, `OCc1cc2c3ccccc3n(Cc3cccc(F)c3)c2c(-c2c[nH]c3ccccc23)n1` please.
> 100 µM

Also, `OCc1cc2c3ccccc3n(Cc3cccc(Cl)c3)c2c(-c2c[nH]c3ccccc23)n1` please.
> 100 µM

Origin of values: ChEMBL document CHEMBL4270603
